experiment: Quantitative High-Throughput drug screen in 47 multiple myeloma cell lines against the NCATS MIPE library collection: JIM1_ECACC cell viability assay (AID 1918964); conditions: JIM1 myeloma viability, CellTiter-Glo ATP luminescence, 48 h; series mostly up to 45.8 µM
Inconclusive results are not listed. Calls of active or inactive are those of the source. Calls come from the whole dose curve; as a rule, active = well fitted cell-killing curve with a large enough effect; inconclusive = small, poorly fitted or top-dose-only effect, or effect the other way; inactive = no such curve, though single readings can be large or run the other way.
Your answer must be one of the following: 1 (active), 0 (inactive)

Prompt line: Name the outcome recorded for `C[C@H]1COc2c(N3CCN(C)CC3)c(F)cc3c(=O)c(C(=O)O)cn1c23` in the assay.
Response line: 0

Prompt line: What classification did `O=C(C=CC#Cc1cccc(NS(=O)(=O)c2ccccc2)c1)NO` end up with in this test?
Response line: 1

Prompt line: Entry `O=C(NCc1ccccc1)[C@H](Cc1ccccc1)NC(=O)[C@@H]1O[C@@H]1C(=O)NCCc1ccc(O)cc1` : call = ?
Response line: 1

Prompt line: What classification did `CC(C)(C)c1nc2c3cc[nH]c(=O)c3c3cc(F)ccc3c2[nH]1` end up with in this test?
Response line: 0

Prompt line: Any idea what this test logged for `C[C@H](NCc1ccc(OCc2cccc(F)c2)cc1)C(N)=O` ?
Response line: 1

====

system: HEK293; test: Cytotoxic Profiling of Annotated Libraries Using Quantitative High-Throughput Screening (AID 1296008); details: Five cell lines viability, CellTiter-Glo ATP luminescence, 48-72 h; note: nearly all actives have a fitted effect of over 60% in size
Records with an inconclusive call do not appear. The source made the active and inactive calls. Calls follow the shape of the dose curve; as a rule, active = well fitted inhibition curve with a large enough effect; inconclusive = small, poorly fitted or top-dose-only effect; inactive = flat fitted curve, though single readings scatter.
Output constraint: value belongs to Yes = active, No = inactive

Prompt line: Give the logged outcome of this assay for the following compound: `N#Cc1c(NC(=O)c2cccc3ccccc23)sc2c1CCCC2`
Response line: Yes

Prompt line: I'd appreciate the recorded outcome for CC1=C(C(=O)Nc2cc3cn[nH]c3cc2F)C(c2ccc(Cl)cc2F)N=C(c2ccnc(Cl)c2)N1 (centres undefined) from this test.
Response line: Yes

Prompt line: Please let me know the test result on file for Cn1cc(C2=C(c3c4n(c5ccccc35)CCC(CN)C4)C(=O)NC2=O)c2ccccc21 (centres undefined) .
Response line: Yes

Prompt line: Each compound tested received a call. Report the one for `C[C@@]12C(=O)OC(=O)[C@@]1(C)C1CCC2O1` .
Response line: Yes

Prompt line: Please indicate how the test categorized `COc1cccc2c1C(=O)c1c(O)c3c(c(O)c1C2=O)C[C@@](O)(C(=O)CO)C[C@@H]3O[C@H]1C[C@H](N)[C@@H](O)[C@H](C)O1` .
Response line: Yes

Prompt line: Just curious, what result did `CN1C(C(=O)Nc2ccccn2)=C(O)c2sc(Cl)cc2S1(=O)=O` get here?
Response line: No

Prompt line: Recorded call for `Cc1cnn(C)c1C(=O)Nc1cc(Nc2ccc3c(C=Cc4ccccn4)n[nH]c3c2)ccc1F` ?
Response line: Yes

Prompt line: Test call for this compound, please: `CON=C(C(=O)N[C@@H]1C(=O)N2C(C(=O)O)=C(CSC(=O)c3ccco3)CS[C@H]12)c1csc(N)n1`
Response line: No

Prompt line: Tell me the assay call for CCOC(=O)C1=C(C)NC(=S)NC1c1cccc(O)c1 (centres undefined) please.
Response line: Yes

====

Assay: qHTS for identification of novel therapeutic agents for treatment of microphthalmiaassociated transcription factor (MiT) renal cell carcinoma (RCC) (AID 1963991);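 note: curves scaled with 100% = DMSO viability and 0% = empty wells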
Settings: TFE3-RCC viability, CellTiter-Glo, 48 h; measured here: UOK124 Z-AUC; stronger effect = lower value
Protocol: PI: Marston Linehan Ph.D. Urologic Oncology Branch, Center for Cancer Research (CCR) National Cancer Institute (NCI), National Institute of Health (NIH), Bethesda, Maryland […] 6; Detection; Luminescence; ViewLux plate reader (PerkinElmer). […] 1. Quantitative high-throughput screening (qHTS) of 1912 pharmacologically defined small molecule compounds was conducted on three TFE3-fusion cell lines bearing three different fusion partners (UOK109, UOK124, UOK145). […]
Results filed as inconclusive are left out.
quantityName: z-score
Form field (numeric): enter value without unit.

Prompt line: Give z-score for the following compound: Cc1ccc(O)c(C(CCN(C(C)C)C(C)C)c2ccccc2)c1 (stereo not given)
Response line: 0.794

Prompt line: Give reported z-score value for `Cc1cn([C@@H]2O[C@H](CO)[C@@H](O)[C@H]2F)c(=O)[nH]c1=O`
Response line: 0.993

Prompt line: Determine from records and report z-score for CC(C)C[C@H](NC(=O)CNC(=O)c1cc(Cl)ccc1Cl)B1OC(=O)CC(CC(=O)O)(C(=O)O)O1 (stereo not given in full)
Response line: -3.62

Prompt line: Supply recorded z-score for OC[C@H]1OC(O)C[C@@H](O)[C@H]1O (stereo not given in full) here.
Response line: 0.406

Prompt line: Return z-score (reported value) for this compound: `C=C(C)[C@@H]1CC[C@]2(C(=O)O)CC[C@]3(C)[C@H](CC[C@@H]4[C@@]5(C)CC[C@H](O)C(C)(C)[C@@H]5CC[C@]43C)[C@@H]12`
Response line: 0.714

Prompt line: Read the entry `O=C(O)C(=O)Nc1cccc(C2=NN=N[N]2)c1` and write its reported z-score.
Response line: 0.525

Prompt line: Report z-score for `Cc1ccc([N+](=O)[O-])cc1S(=O)(=O)N(C)N=Cc1cnc2ccc(Br)cn12`
Response line: -3.04

Prompt line: Please report z-score for the following compound: `CC(=O)O[C@H]1C[C@@H]2CC[C@H]3[C@H]4C[C@H]([N+]5(C)CCCCC5)[C@@H](OC(C)=O)[C@@]4(C)CC[C@@H]3[C@@]2(C)C[C@H]1N1CCCCC1`
Response line: 0.686

Prompt line: Tell me its z-score given `NC[C@H]1O[C@H](O[C@H]2[C@@H](O)[C@@H](O[C@H]3O[C@H](CO)[C@@H](O)[C@H](N)[C@@H]3O)[C@H](N)C[C@@H]2N)[C@H](N)C[C@H]1O` as the entry.
Response line: 0.18

Prompt line: Report z-score, nothing else, for this compound: `CN[C@@H]1C[C@H]2O[C@@](C)([C@H]1OC)n1c3ccccc3c3c4c(c5c6ccccc6n2c5c31)C(=O)N[C@H]4O`
Response line: -2.32

Prompt line: Supply reported z-score belonging to this compound: `C[C@H]1C[C@H]2[C@@H]3CCC4=CC(=O)C=C[C@]4(C)[C@@H]3C(=O)C[C@]2(C)[C@@]1(O)C(=O)CO`
Response line: 0.279

Prompt line: Supply recorded z-score for `CNC(=O)Nc1ccc(-c2nc(N3CC4CCC(C3)O4)c3cnn(C4CCC5(CC4)OCCO5)c3n2)cc1` here.
Response line: -1.26

Prompt line: Identify measured z-score associated with `CC(C)(O)[C@H]1CC[C@@](C)([C@H]2[C@@H](O)C[C@@]3(C)[C@@H]4C[C@H](O[C@@H]5O[C@H](CO)[C@@H](O)[C@H](O)[C@@H]5O)[C@H]5C(C)(C)[C@@H](O[C@@H]6OC[C@@H](O)[C@H](O)[C@@H]6O)CC[C@@]56C[C@@]46CC[C@]23C)O1`
Response line: 0.41

Prompt line: State, in one line, measured z-score of `COc1ccc(C=Cc2cc(OC)c(OC)c(OC)c2)cc1NC(=O)[C@H](N)CO`
Response line: -3.86

Prompt line: Consider the compound `CC[C@H]1OC(=O)[C@H](C)[C@@H](O[C@H]2C[C@@](C)(OC)[C@@H](O)[C@H](C)O2)[C@H](C)[C@@H](O[C@@H]2O[C@@H](C)C[C@H](N(C)C)[C@@H]2O)[C@](C)(O)C[C@@H](C)C(=O)[C@H](C)[C@@H](O)[C@]1(C)O` . State its measured z-score.
Response line: 0.444
